B1: RAB40A (parent)
chain: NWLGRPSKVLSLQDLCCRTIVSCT

variants of: B1; experiment: protein stability index of a GFP-peptide fusion (GPS, HEK-293T) (PSI 1-6); higher = more stable; settings: c terminus: a fixed tail appended;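 note: lentivirally expressed fusions sorted by FACS into six bins by GFP to DsRed ratio, PSI derived from sequencing read proportions per bin multiplied by bin number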
REPORTED_PROPERTY: protein stability index
No unit in the answer, please; the number alone is enough.

Prompt: Identify measured protein stability index corresponding to R18G
Response: 2

Prompt: Identify measured protein stability index corresponding to C17W
Response: 2.03

Prompt: Identify measured protein stability index corresponding to T24A
Response: 2.5

Prompt: Identify measured protein stability index corresponding to D14V
Response: 1.72

Prompt: Identify measured protein stability index corresponding to P6F
Response: 2.17

Prompt: Identify measured protein stability index corresponding to L12A
Response: 1.38

Prompt: Identify measured protein stability index corresponding to W2L
Response: 2.68

Prompt: Identify measured protein stability index corresponding to V9C
Response: 2.07

Prompt: Identify measured protein stability index corresponding to L10I
Response: 2.41

Prompt: Identify measured protein stability index corresponding to C16R
Response: 1.75

Prompt: Identify measured protein stability index corresponding to C16E
Response: 1.9

Prompt: Identify measured protein stability index corresponding to C17V
Response: 2.6

Prompt: Identify measured protein stability index corresponding to C17G
Response: 2.34

Prompt: Identify measured protein stability index corresponding to T24Q
Response: 3.19

Prompt: Identify measured protein stability index corresponding to G4A
Response: 2.73

Prompt: Identify measured protein stability index corresponding to L15Y
Response: 2.15

Prompt: Identify measured protein stability index corresponding to L12C
Response: 1.79

Prompt: Identify measured protein stability index corresponding to C17S
Response: 2.75

Prompt: Identify measured protein stability index corresponding to L10D
Response: 2.31

Prompt: Identify measured protein stability index corresponding to N1L
Response: 1.62

Prompt: Identify measured protein stability index corresponding to C23T
Response: 2.66

Prompt: Identify measured protein stability index corresponding to L10F
Response: 2.02

Prompt: Identify measured protein stability index corresponding to L10H
Response: 2.07

Prompt: Identify measured protein stability index corresponding to R5K
Response: 2.42

Prompt: Identify measured protein stability index corresponding to G4F
Response: 2.23

Prompt: Identify measured protein stability index corresponding to C17E
Response: 3.08

Prompt: Identify measured protein stability index corresponding to G4P
Response: 2.42

Prompt: Identify measured protein stability index corresponding to R18C
Response: 2.35

Prompt: Identify measured protein stability index corresponding to L15E
Response: 2.15

Prompt: Identify measured protein stability index corresponding to D14E
Response: 2.54

Prompt: Identify measured protein stability index corresponding to L10N
Response: 2.22

Prompt: Identify measured protein stability index corresponding to T19S
Response: 2.51

Prompt: Identify measured protein stability index corresponding to V21N
Response: 2.8

Prompt: Identify measured protein stability index corresponding to P6V
Response: 1.91

Prompt: Identify measured protein stability index corresponding to T24W
Response: 2.2

Prompt: Identify measured protein stability index corresponding to W2K
Response: 3.11

Prompt: Identify measured protein stability index corresponding to S11E
Response: 2.01

Prompt: Identify measured protein stability index corresponding to C17N
Response: 2.95

Prompt: Identify measured protein stability index corresponding to N1V
Response: 2.15

Prompt: Identify measured protein stability index corresponding to S11D
Response: 1.9

Prompt: Identify measured protein stability index corresponding to S7C
Response: 2.21

Prompt: Identify measured protein stability index corresponding to L12R
Response: 2.23

Prompt: Identify measured protein stability index corresponding to V21H
Response: 2.44

Prompt: Identify measured protein stability index corresponding to L10A
Response: 2.52

Prompt: Identify measured protein stability index corresponding to Q13C
Response: 2.42

Prompt: Identify measured protein stability index corresponding to T19M
Response: 2.27

Prompt: Identify measured protein stability index corresponding to T19L
Response: 2.16

Prompt: Identify measured protein stability index corresponding to K8P
Response: 2.29

Prompt: Identify measured protein stability index corresponding to L12G
Response: 3.06

Prompt: Identify measured protein stability index corresponding to L12Q
Response: 2.31

Prompt: Identify measured protein stability index corresponding to R18D
Response: 1.99

Prompt: Identify measured protein stability index corresponding to R5I
Response: 2.2

Prompt: Identify measured protein stability index corresponding to R5V
Response: 2.52

Prompt: Identify measured protein stability index corresponding to S11P
Response: 2.14

Prompt: Identify measured protein stability index corresponding to W2I
Response: 3.01

Prompt: Identify measured protein stability index corresponding to S22W
Response: 2.04

Prompt: Identify measured protein stability index corresponding to N1W
Response: 2.22

Prompt: Identify measured protein stability index corresponding to L3A
Response: 2.53

Prompt: Identify measured protein stability index corresponding to S11V
Response: 2.74

Prompt: Identify measured protein stability index corresponding to V9H
Response: 2.21

Prompt: Identify measured protein stability index corresponding to C17D
Response: 2.79

Prompt: Identify measured protein stability index corresponding to S7E
Response: 2.12

Prompt: Identify measured protein stability index corresponding to L3I
Response: 2.36

Prompt: Identify measured protein stability index corresponding to R18T
Response: 2.26

Prompt: Identify measured protein stability index corresponding to D14L
Response: 1.67

Prompt: Identify measured protein stability index corresponding to L15C
Response: 1.89

Prompt: Identify measured protein stability index corresponding to L3K
Response: 3.05

Prompt: Identify measured protein stability index corresponding to G4C
Response: 1.5

Prompt: Identify measured protein stability index corresponding to G4S
Response: 2.21

Prompt: Identify measured protein stability index corresponding to P6R
Response: 2.29

Prompt: Identify measured protein stability index corresponding to L15V
Response: 1.72

Prompt: Identify measured protein stability index corresponding to S7L
Response: 2.13

Prompt: Identify measured protein stability index corresponding to W2Y
Response: 2.68

Prompt: Identify measured protein stability index corresponding to K8G
Response: 2.01

Prompt: Identify measured protein stability index corresponding to R18V
Response: 2.39

Prompt: Identify measured protein stability index corresponding to L12H
Response: 2.31

Prompt: Identify measured protein stability index corresponding to T19P
Response: 1.86

Prompt: Identify measured protein stability index corresponding to D14Q
Response: 2.12

Prompt: Identify measured protein stability index corresponding to S11L
Response: 1.86

These measurements were taken from the supplement of paper PMC10567573.
